Sourced from patent US11130803B2

Documented (B) hLTBP1, Matrix-associated proTGFβ1 KD across a set of molecules
# targetUnderTest: T1, hLTBP1-proTGFβ1 (Homo sapiens, UniProt P01137)
# T1 construct: made in house; host or cells: Expi293F cells, transient co-transfection
# T1 sequence (P01137 30-390): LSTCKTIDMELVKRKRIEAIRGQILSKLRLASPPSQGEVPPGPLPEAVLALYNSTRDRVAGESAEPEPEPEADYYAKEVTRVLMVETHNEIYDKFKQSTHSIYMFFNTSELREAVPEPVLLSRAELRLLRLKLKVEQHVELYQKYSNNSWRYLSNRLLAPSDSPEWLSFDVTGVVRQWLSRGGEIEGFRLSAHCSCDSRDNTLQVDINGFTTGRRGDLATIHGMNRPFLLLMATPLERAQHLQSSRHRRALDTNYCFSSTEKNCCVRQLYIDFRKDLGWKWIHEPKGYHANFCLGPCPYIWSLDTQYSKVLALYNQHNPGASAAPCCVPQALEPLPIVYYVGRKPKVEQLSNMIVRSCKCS
# T1 sequence (Q14766 873-1507 partner): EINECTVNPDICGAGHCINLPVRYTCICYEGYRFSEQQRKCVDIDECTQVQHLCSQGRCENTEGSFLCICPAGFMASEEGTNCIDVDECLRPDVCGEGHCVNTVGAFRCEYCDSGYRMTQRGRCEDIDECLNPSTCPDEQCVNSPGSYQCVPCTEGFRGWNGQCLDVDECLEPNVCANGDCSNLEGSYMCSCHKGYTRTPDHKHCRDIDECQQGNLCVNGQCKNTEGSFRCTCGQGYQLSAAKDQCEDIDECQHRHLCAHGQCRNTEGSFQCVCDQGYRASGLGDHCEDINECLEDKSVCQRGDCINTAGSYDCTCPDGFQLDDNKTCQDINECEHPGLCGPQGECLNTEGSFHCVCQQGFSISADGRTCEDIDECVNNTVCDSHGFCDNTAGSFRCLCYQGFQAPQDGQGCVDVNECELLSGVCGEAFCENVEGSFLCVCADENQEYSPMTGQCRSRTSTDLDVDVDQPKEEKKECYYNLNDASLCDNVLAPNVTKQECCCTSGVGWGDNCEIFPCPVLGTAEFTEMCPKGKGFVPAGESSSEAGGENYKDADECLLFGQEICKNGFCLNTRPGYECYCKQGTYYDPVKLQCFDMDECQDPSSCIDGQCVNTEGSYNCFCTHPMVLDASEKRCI
# testProtocol: MSD-SET solution equilibrium titration binding
# testContext: MSD-SET at equilibrium, hIgG4, human complex; in M
# Description: Solution Equilibrium Titration (SET): The SET is an assay whereby binding between two molecules (such as an antigen and an antibody that binds the antigen) can be measured at equilibrium in a solution. […] Solution equilibrium titration (“SET”) is an assay whereby binding between two molecules (such as an antigen and an antibody that binds the antigen) can be measured at equilibrium in a solution. […]
measureName: (B) hLTBP1, Matrix-associated proTGFβ1 KD

molecule	assayValue
Ab22: monoclonal antibody; VH SEQ ID NO: 130, VL SEQ ID NO: 15 (antibody, V domains shown) VH: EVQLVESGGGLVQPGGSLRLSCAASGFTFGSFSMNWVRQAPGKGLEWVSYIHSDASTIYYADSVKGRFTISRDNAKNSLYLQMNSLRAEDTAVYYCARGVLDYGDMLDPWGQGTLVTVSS VL: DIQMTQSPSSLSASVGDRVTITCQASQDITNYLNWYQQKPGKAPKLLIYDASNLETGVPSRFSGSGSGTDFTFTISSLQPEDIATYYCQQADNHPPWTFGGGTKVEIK	5.00E−11
Ab26: monoclonal antibody; VH SEQ ID NO: 134, VL SEQ ID NO: 15 (antibody, V domains shown) VH: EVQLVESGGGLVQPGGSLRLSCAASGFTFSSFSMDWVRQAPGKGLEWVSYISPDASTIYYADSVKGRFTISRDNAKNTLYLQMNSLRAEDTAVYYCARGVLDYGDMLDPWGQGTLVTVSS VL: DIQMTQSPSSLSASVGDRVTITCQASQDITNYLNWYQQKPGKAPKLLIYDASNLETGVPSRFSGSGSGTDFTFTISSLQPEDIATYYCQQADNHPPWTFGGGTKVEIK	2.80E−11
